Assay: Mouse PK study (IV and PO), plasma parent compound and psilocin by LC-MS/MS
Type: in vivo
Settings: male, C57Bl/6, mouse, plasma, intravenous, 1 mg/kg, 1 mg/kg i.v. C(XX); 0.5 h; per animal; BLQ <0.25 ng/mL; read-out: Plasma concentration of C(XX)
Text: Briefly, the procedure was as follows. […] 19, 2022.
ENDPOINT NAME: concentration at 0.5 h
Please format your answer as a value with the unit trailing.

Recorded concentration at 0.5 h of CN(C)CCc1c[nH]c2cccc(OC(=O)c3cccc4c3OCCO4)c12 [C(XX)] , please. 26.1 ng/mL

###

Test: Mouse PK study (IV and PO), plasma parent compound and psilocin by LC-MS/MS
Type: in vivo
Details: male, C57Bl/6, mouse, plasma, oral, 1 mg/kg, 1 mg/kg oral C(I); 4 h; mean (n = 1); read-out: Plasma concentration of C(I)
Source text: Briefly, the procedure was as follows. […] 19, 2022.
ENDPOINT NAME: concentration at 4 h (ng/mL)
Report the value in ng/mL with no unit label.

Recorded concentration at 4 h of CN(C)CCc1c[nH]c2cccc(OC(=O)c3ccc(Br)cc3)c12 , please. 0.352
